- TARGET_DESC: Asc-2-rBAT (Mus musculus, UniProt Q8VIE6+Q91WV7)
- Construct: expressed in transfected cells; host or cells: oocyte injected with cRNA
- Sequence (Q8VIE6+Q91WV7 fused): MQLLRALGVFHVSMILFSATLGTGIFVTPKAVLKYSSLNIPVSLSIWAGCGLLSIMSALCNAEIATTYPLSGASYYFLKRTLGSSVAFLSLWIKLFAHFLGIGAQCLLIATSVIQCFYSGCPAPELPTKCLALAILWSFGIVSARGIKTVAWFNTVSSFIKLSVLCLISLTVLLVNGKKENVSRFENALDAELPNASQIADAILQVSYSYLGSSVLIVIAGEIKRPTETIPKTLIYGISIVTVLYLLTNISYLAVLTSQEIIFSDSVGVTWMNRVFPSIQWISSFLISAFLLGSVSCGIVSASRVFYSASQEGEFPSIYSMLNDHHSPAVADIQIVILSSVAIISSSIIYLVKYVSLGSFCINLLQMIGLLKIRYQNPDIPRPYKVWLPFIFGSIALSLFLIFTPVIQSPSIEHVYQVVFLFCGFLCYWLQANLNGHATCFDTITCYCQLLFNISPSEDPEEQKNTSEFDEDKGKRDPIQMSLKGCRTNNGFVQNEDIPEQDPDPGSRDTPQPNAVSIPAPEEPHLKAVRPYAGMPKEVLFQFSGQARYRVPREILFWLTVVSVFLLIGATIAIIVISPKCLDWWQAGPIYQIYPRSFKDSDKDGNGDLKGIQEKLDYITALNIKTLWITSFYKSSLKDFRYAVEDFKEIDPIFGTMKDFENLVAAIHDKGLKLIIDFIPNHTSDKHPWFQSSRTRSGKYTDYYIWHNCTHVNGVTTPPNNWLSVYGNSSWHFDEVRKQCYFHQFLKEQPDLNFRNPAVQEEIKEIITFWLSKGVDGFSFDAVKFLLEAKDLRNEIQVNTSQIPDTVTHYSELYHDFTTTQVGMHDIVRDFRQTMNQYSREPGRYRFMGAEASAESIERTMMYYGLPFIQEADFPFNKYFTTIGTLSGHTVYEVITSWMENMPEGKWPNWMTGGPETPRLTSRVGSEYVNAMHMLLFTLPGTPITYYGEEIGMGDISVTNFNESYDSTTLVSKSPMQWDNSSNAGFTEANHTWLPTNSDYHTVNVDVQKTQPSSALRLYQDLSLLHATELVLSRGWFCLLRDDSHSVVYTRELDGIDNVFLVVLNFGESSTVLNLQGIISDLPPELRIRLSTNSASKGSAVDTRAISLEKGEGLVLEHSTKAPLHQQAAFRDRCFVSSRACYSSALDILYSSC
- EXPERIMENT_DESCRIPTION: Uptake test of radiolabeled amino acids and analogues as substrates by oocytes expressing Asc-2-rBAT
- Type: cell-based
- EXPERIMENTAL_CONTEXT: Asc-2-rBAT oocyte; 14C compound as substrate
- Protocol: Using various amino acids and their analogues as substrates, the uptake by an oocyte into which a cRNA of the gene of the fusion protein of the Asc-2 with the rBAT (Asc-2-rBAT) had been injected was investigated. The uptake test of various amino acids and their analogues was conducted using the oocyte into which a cRNA of the gene of the fusion protein of the Asc-2 with the rBAT (Asc-2-rBAT) had been injected in accordance with the method in Section (2) in Example 2 described above. […]
RECORDED_ENDPOINT: Uptake of radiolabeled compound into the oocyte

INSERT INTO results (smiles_data, measured) VALUES
  ('NCC(=O)O', 'substantial uptake'),
  ('N[C@@H](CO)C(=O)O', 'substantial uptake'),
  ('C[C@H](N)C(=O)O', 'substantial uptake'),
  ('C[C@@H](O)[C@H](N)C(=O)O', 'substantial uptake');

###

- TARGET_DESC: Asc-2-rBAT (Mus musculus, UniProt Q8VIE6+Q91WV7)
- Construct: expressed in transfected cells; host or cells: oocyte injected with cRNA
- EXPERIMENT_DESCRIPTION: Inhibition test: 14C-serine uptake by oocytes expressing Asc-2-rBAT with added amino acids and analogues
- Assay type: cell-based
- EXPERIMENTAL_CONTEXT: 14C-serine 5 μM; non-labeled compound 500 μM; Na+-free uptake solution
- Experimental: In a serine uptake test in an oocyte into which a cRNA of the gene of the fusion protein of the Asc-2 with the rBAT (Asc-2-rBAT) was injected, the effect of amino acids and their analogues on the system was investigated. The serine uptake test was conducted using the oocyte into which a cRNA of the gene of the fusion protein of the Asc-2 with the rBAT (Asc-2-rBAT) was injected in accordance with the method in Section (2) in Example 2 described above. […]
RECORDED_ENDPOINT: Effect on Asc-2-rBAT-mediated 14C-serine uptake (cis-inhibition)

Use the examples below as a reference point.
INSERT INTO measurements (compound, measured) VALUES
  ('N[C@@H](CS)C(=O)O [L-Cysteine]', 'inhibited potently'),
  ('C[C@H](N)C(=O)O [L-Alanine]', 'inhibited potently'),
  ('C[C@@H](O)[C@H](N)C(=O)O [L-Threonine]', 'inhibited potently'),
  ('NC1(C(=O)O)CC2CCC1C2 (stereo not shown) [BCH, 2-amino-2-norbornane-carboxylic acid]', 'no effect');

Identify measured Effect on Asc-2-rBAT-mediated 14C-serine uptake (cis-inhibition) corresponding to NCC(=O)O [Glycine] inhibited potently

Please give the documented Effect on Asc-2-rBAT-mediated 14C-serine uptake (cis-inhibition) of N[C@@H](CO)C(=O)O [L-Serine] inhibited potently

Annotate the compound NCCCC(=O)O [γ-aminoisoyric acid] with its measured Effect on Asc-2-rBAT-mediated 14C-serine uptake (cis-inhibition). no effect

###

- Test system: Asc-2 fusion protein with the 4F2hc or rBAT
- EXPERIMENT_DESCRIPTION: Transport of amino acids by Asc-2 expressed on the cell membrane as fusion protein with 4F2hc or rBAT (summary statement)
- Format: cell-based, mouse
- EXPERIMENTAL_CONTEXT: Asc-2 fused with 4F2hc or rBAT
RECORDED_ENDPOINT: Affinity of transport by Asc-2 fusion protein

Completed entries (count: 5):
INSERT INTO measurements (compound, measured) VALUES
  ('CC(C)[C@H](N)C(=O)O [L-Valine]', 'low affinity'),
  ('N[C@H](CO)C(=O)O [D-serine]', 'low affinity'),
  ('NCC(=O)O [Glycine]', 'high affinity'),
  ('CC[C@H](C)[C@H](N)C(=O)O [L-isoleucine]', 'low affinity'),
  ('N[C@@H](Cc1ccc(O)cc1)C(=O)O [L-tyrosine]', 'low affinity');

Report Affinity of transport by Asc-2 fusion protein from Asc-2 fusion protein with the 4F2hc or rBAT testing of N[C@@H](CO)C(=O)O [L-Serine] high affinity

# assay system Asc-2 fusion protein with the 4F2hc or rBAT: give Affinity of transport by Asc-2 fusion protein of C[C@H](N)C(=O)O [L-Alanine] high affinity

Tell me Affinity of transport by Asc-2 fusion protein of N[C@@H](Cc1ccccc1)C(=O)O [L-phenylalanine] when tested on Asc-2 fusion protein with the 4F2hc or rBAT. low affinity

Provide Affinity of transport by Asc-2 fusion protein, system Asc-2 fusion protein with the 4F2hc or rBAT, entry CC(C)C[C@H](N)C(=O)O [L-Leucine] low affinity

Specify Affinity of transport by Asc-2 fusion protein for N[C@@H](Cc1c[nH]cn1)C(=O)O [L-histidine] , system Asc-2 fusion protein with the 4F2hc or rBAT. low affinity

Specify the recorded Affinity of transport by Asc-2 fusion protein for N[C@@H](CS)C(=O)O [L-Cysteine] , system: Asc-2 fusion protein with the 4F2hc or rBAT. high affinity

Answer briefly: Affinity of transport by Asc-2 fusion protein recorded on Asc-2 fusion protein with the 4F2hc or rBAT for CSCC[C@H](N)C(=O)O [L-methionine] low affinity

Provide Affinity of transport by Asc-2 fusion protein, tested on Asc-2 fusion protein with the 4F2hc or rBAT, for C[C@@H](O)[C@H](N)C(=O)O [L-Threonine] . high affinity

Please indicate recorded Affinity of transport by Asc-2 fusion protein of C[C@@H](N)C(=O)O [D-alanine] measured with Asc-2 fusion protein with the 4F2hc or rBAT. low affinity
